Test system: anti-CR2 SCR1-2 mAb 629
Experiment: MBP-CR2 SCR1-2-629 mAb ELISA
Format: binding
Conditions: mutant MBP-CR2 SCR1-2 relative to wild-type; plate-bound 629 mAb
MEASURE: % 629 mAb Bindng
Phrase the answer as number then unit, nothing more needed.

R28A: single-site mutant of recombinant MBP-CR2 SCR1-2 (protein, left off: large carriers; small tags and cut ends) ISCGSPPPILNGRISYYSTPIAVGTVIAYSCSGTFRLIGEKSLLCITKDKVDGTWDKPAPKCEYFNKYSSCPEPIVPGGYKIRGSTPYRHGDSVTFACKTNFSMNGNKSVWCQANNMWGPTRLPTCVSVFPLE :: 103.1%

Next:
Entry M117A: single-site mutant of recombinant MBP-CR2 SCR1-2 (protein, left off: large carriers; small tags and cut ends) ISCGSPPPILNGRISYYSTPIAVGTVIRYSCSGTFRLIGEKSLLCITKDKVDGTWDKPAPKCEYFNKYSSCPEPIVPGGYKIRGSTPYRHGDSVTFACKTNFSMNGNKSVWCQANNAWGPTRLPTCVSVFPLE — recorded % 629 mAb Bindng = 113.8%
